Origin of values: patent US7371751B2

# experimental.system: human cannabis CB1 receptor (Homo sapiens, UniProt P21554)
# Construct: expressed in transfected cells; host or cells: human embryonic kidney (HEK) cells, Semliki Forest Virus system, membrane preparation
# Sequence (P21554 whole entry): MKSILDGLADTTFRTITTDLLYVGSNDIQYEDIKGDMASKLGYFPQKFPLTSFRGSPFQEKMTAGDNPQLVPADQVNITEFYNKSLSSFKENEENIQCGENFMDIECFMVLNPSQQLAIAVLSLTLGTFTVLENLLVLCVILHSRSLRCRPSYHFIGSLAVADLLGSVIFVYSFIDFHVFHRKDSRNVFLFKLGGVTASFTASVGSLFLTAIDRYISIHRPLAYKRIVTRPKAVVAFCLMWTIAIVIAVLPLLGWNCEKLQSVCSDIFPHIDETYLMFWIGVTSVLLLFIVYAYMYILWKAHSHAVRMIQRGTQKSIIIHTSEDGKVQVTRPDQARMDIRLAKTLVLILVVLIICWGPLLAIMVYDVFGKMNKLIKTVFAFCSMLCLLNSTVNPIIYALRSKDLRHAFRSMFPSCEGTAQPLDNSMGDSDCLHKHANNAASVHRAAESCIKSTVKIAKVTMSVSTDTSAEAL
# experimental.protocol: Affinity for cannabinoid CB1 receptors, [3H]-CP-55,940 radioligand binding on HEK cell membrane preparations
pIC50: −log10 of the molar value.
Let's look at some molecules and their measured pIC50.

{"structure.smiles.string": "COc1ccc(N(C(=O)c2ccc(Cl)cc2Cl)c2nc(C(=O)NCc3ccccc3)cs2)cc1OC", "pIC50": 6.09}
{"structure.smiles.string": "CC(C)(C)N(CCO)C(=O)c1csc(N(C(=O)c2ccc(Cl)cc2Cl)c2ccc(Cl)cc2)n1", "pIC50": 6.59}
{"structure.smiles.string": "COCCN(CCOC)C(=O)c1csc(N(C(=O)c2ccc(Cl)cc2Cl)c2ccc(Cl)cc2)n1", "pIC50": 6.26}
{"structure.smiles.string": "O=C(c1csc(N(C(=O)c2ccc(Cl)cc2Cl)c2ccc(Cl)cc2)n1)N1CCCC1", "pIC50": 6.21}
{"structure.smiles.string": "O=C(c1csc(N(C(=O)c2ccc(Cl)cc2Cl)c2ccc(OC(F)(F)F)cc2)n1)N1CCCC1", "pIC50": 6.31}
